B1: ALDH8A1 (parent)
chain: FTGSQPTAERITQLSAPHCKKLSL

Variants of: B1
method.summary: protein stability index of a GFP-peptide fusion (GPS, HEK-293T) (PSI 1-6); higher = more stable;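 further: lentivirally expressed fusions sorted by FACS into six bins by GFP to DsRed ratio, PSI derived from sequencing read proportions per bin multiplied by bin number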
settings: c terminus: a fixed tail appended
This section presents variants with their documented protein stability index values.
// return a plain number; no unit text

Worked cases, answers included:
variant.descriptor: G3H
protein stability index: 2.4

variant.descriptor: A8P
protein stability index: 2.3

variant.descriptor: T7I
protein stability index: 2.39

variant.descriptor: H18G
protein stability index: 2.05

variant.descriptor: L22M
protein stability index: 2.14

variant.descriptor: P17M
protein stability index: 2.04

variant.descriptor: F1A
protein stability index: 4.03

variant.descriptor: A8D
protein stability index: 2.16

variant L22Y , protein stability index observed: 2.68

Measured protein stability index of S15K : 1.84

protein stability index reading for H18V : 3
